All figures here come from PubChem BioAssay (NCI).

Catalogue of molecules with associated TGI
- Test system: HOP-92 NSCLC
- assay-procedure: NCI tumour cell line growth inhibition, 48 h
# output: bare number, implied unit µM

Known results for molecules:
# molecule, reported
rows = [
    ("COC1=CC(c2ccc[nH]2)=N/C1=C\\c1[nH]c(C)c(C(=O)CCCCC(=O)Nc2ccccc2)c1C", 3.37),
    ("Nc1ccc(/C=N/Nc2ccnc3c(N)cccc23)c2cccnc12", 3.14),
]

Entry O=C1C=C(NCCc2cc(Br)c(O)c(Br)c2)C(=O)c2ncccc21 has what TGI?
25.6

Entry CC(=O)Oc1cc2c(cc1OC(C)=O)[C@H]1CC[C@]3(C)[C@@H](OC(C)=O)CC[C@H]3[C@@H]1CC2 has what TGI?
5.3

Entry CCOC(=O)c1c(C(F)(F)F)n([O-])c2ccc(OC)cc2[n+]1=O has what TGI?
11.9

Entry O=C(Cc1ccc(Cl)c(Cl)c1)N(CCc1ccc(Cl)c(Cl)c1)CCN1CCCC1 has what TGI?
4.74

Entry CC(C)n1c2c([n+](C)c1/C=C/c1ccccc1)C(=O)c1ccccc1C2=O has what TGI?
1.48

###

- Test system: MOLT-4 leukemia
- assay-procedure: NCI tumour cell line growth inhibition, 48 h
observable: TGI

Known results for molecules:
# item-smiles, observable, reported
records = [
    ("CCOC(=O)c1[nH]c2ccccc2c1C(=O)C[C@H](NC(=O)C(F)(F)F)C(=O)OC", "TGI", "> 100 µM"),
    ("CCCc1nc2c(C)cc(-c3nc4ccccc4n3C)cc2n1Cc1ccc(-c2ccccc2C(=O)O)cc1", "TGI", "> 100 µM"),
]

Entry O=C(COc1ccccc1)NS(=O)(=O)c1ccccc1 has what TGI?
> 100 µM

###

Catalogue of molecules with associated TGI
- System: RPMI-8226 leukemia
- assay-procedure: NCI tumour cell line growth inhibition, 48 h
# output: bare number, implied unit µM

Known results for molecules:
# molecule, units-label, TGI
measured = [
    ("CC(=O)N=c1ccc2nc3c(cc(N)c4ccccc43)oc-2c1", "µM", 1.76),
    ("Cc1cc(O)cc2c1O[C@@]1(C)CCC3[C@@]4(C)CC[C@H](O)C(C)(C)C4CC[C@@]3(C)[C@H]1C2 (some centres undefined)", "µM", 5.07),
    ("COC1=CC(c2ccc[nH]2)=N/C1=C\\c1[nH]c(C)c(C(=O)CCCCC(=O)Nc2ccccc2)c1C", "µM", 1.82),
]

# next molecule below
Entry CC(C)(C)C(=O)C1CC(=O)c2ccccc2C1=O (centres undefined) has what TGI?
64.8

###

Catalogue of compounds with associated TGI
- System: SNB-19 CNS
- assay-procedure: NCI tumour cell line growth inhibition, 48 h

# compound, tested-system, TGI
measured = [
    ("COc1cc2nc(Nc3cccc(F)c3)nc(Nc3cc(C)[nH]n3)c2cc1OC", "SNB-19 CNS", "4.05 µM"),
    ("Cc1nc(NC(=O)CCCN2C(=O)c3cccc4cccc(c34)C2=O)sc1C(=O)Nc1cc(C(=O)NCCCN(C)C)n(C)c1", "SNB-19 CNS", "> 100 µM"),
]

Entry CC1(C)CN=C(Nc2cccc(C(F)(F)F)c2)S1 has what TGI?
> 100 µM

Entry N#CC(c1cc2c(cc1Br)OCO2)N1CCOCC1 (stereo not given) has what TGI?
> 100 µM

Entry NS(=O)(=O)c1ccc(CNc2nc(-c3cccs3)nc3ccc(I)cc23)cc1 has what TGI?
39.7 µM

Entry Cc1ccccc1C(C#N)C(=O)C(=O)Nc1cccc(Cl)c1 (stereo not given) has what TGI?
> 100 µM

Entry O=[N+]([O-])c1cc(Cl)cc2cc(Cl)cnc12 has what TGI?
> 100 µM

Entry COc1ccc(-c2nc(-c3nc4ccc(OC)cc4[nH]3)cc3c2[nH]c2ccccc23)cc1 has what TGI?
> 100 µM

Entry CC(=O)OCC1OC(n2c(N)c(C#N)c(-c3ccc(C)cc3)c(C#N)c2=S)C(OC(C)=O)C(OC(C)=O)C1OC(C)=O (stereo not given) has what TGI?
34.8 µM

Entry NCCCN1CCN(CC(=O)O)CCN(CCCN)CCN(CC(=O)O)CC1 has what TGI?
> 100 µM
